Provide the reported IC50 of each item.
Test system: Trypanosoma brucei brucei
Assay: Antitrypanosomal activity against Trypanosoma brucei brucei
Type: functional, organism-based
I'd appreciate it if you wrote the number followed by its unit.

The following compounds have reported results that may help.
1. N=C(NCCCNCCCCCCCNCCCNC(=N)NC(=N)NCCC(c1ccccc1)c1ccccc1)NC(=N)NCCC(c1ccccc1)c1ccccc1 | 620 nM
2. N=C(NCCCNCCCNCCCNC(=N)NC(=N)NCC(c1ccccc1)c1ccccc1)NC(=N)NCC(c1ccccc1)c1ccccc1 | 180 nM
3. NC(=NCCCNCCCCCCCNCCCN=C(N)NC1CCCCCC1)NC1CCCCCC1 | 180 nM
4. N=C(NCCCNCCCCCCCNCCCNC(=N)NC(=N)NCC(c1ccccc1)c1ccccc1)NC(=N)NCC(c1ccccc1)c1ccccc1 | 450 nM
5. N=C(NCCCNCCCCNCCCNC(=N)NC(=N)NCC(c1ccccc1)c1ccccc1)NC(=N)NCC(c1ccccc1)c1ccccc1 | 1050 nM
6. NC(=NCCCNCCCCCCCNCCCN=C(N)NCC(c1ccccc1)c1ccccc1)NCC(c1ccccc1)c1ccccc1 | 500 nM
7. N=C(NCCCNCCCCNCCCNC(=N)NCC(c1ccccc1)c1ccccc1)NCC(c1ccccc1)c1ccccc1 | 3350 nM

Below: the item to evaluate.
Query block: Please look at this compound and report its IC50: NC(=NCCCNCCCCCCCNCCCN=C(N)NCc1ccccc1)NCc1ccccc1
Result block: 90 nM

----------
Molecular target: Trypanothione reductase (Trypanosoma cruzi)
Readout kind: IC50
I'd appreciate it if you wrote the number followed by its unit.

The following molecules have reported results that may help.
1) N=C(NCCCNCCCCNCCCNC(=N)NC(=N)NCC(c1ccccc1)c1ccccc1)NC(=N)NCC(c1ccccc1)c1ccccc1 | 2740 nM
2) NC(=NCCCNCCCCCCCNCCCN=C(N)NCc1ccccc1)NCc1ccccc1 | 69500 nM

Query block: Please look at this molecule and report its IC50: N=C(NCCCNCCCCNCCCNC(=N)NCCC(c1ccccc1)c1ccccc1)NCCC(c1ccccc1)c1ccccc1
Result block: 2970 nM

----------
Provide the reported log10(IC50) of each item.
Test system: Trypanosoma brucei brucei
Test: Antitrypanosomal activity against Trypanosoma brucei brucei
Assay type: functional, organism-based
Plainly stated, the numbers are log10 of IC50 given in nM.

The following compounds have reported results that may help.
1) NC(=NCCCNCCCCCCCNCCCN=C(N)NCCC(c1ccccc1)c1ccccc1)NCCC(c1ccccc1)c1ccccc1 | 2.79
2) N=C(NCCCNCCCCNCCCNC(=N)NCCC(c1ccccc1)c1ccccc1)NCCC(c1ccccc1)c1ccccc1 | 3.38
3) N=C(NCCCNCCCCNCCCNC(=N)NC(=N)NCCC(c1ccccc1)c1ccccc1)NC(=N)NCCC(c1ccccc1)c1ccccc1 | 2.28
4) N=C(NCCCNCCCNCCCNC(=N)NCCC(c1ccccc1)c1ccccc1)NCCC(c1ccccc1)c1ccccc1 | 3.29
5) N=C(NCCCNCCCNCCCNC(=N)NC(=N)NCCC(c1ccccc1)c1ccccc1)NC(=N)NCCC(c1ccccc1)c1ccccc1 | 3.25

Query block: Please look at this compound and report its log10(IC50): NC(=NCCCNCCCNCCCN=C(N)NCC(c1ccccc1)c1ccccc1)NCC(c1ccccc1)c1ccccc1
Result block: 3.31

----------
Target: Trypanothione reductase (Trypanosoma cruzi, UniProt P28593)
Sequence (P28593 whole entry): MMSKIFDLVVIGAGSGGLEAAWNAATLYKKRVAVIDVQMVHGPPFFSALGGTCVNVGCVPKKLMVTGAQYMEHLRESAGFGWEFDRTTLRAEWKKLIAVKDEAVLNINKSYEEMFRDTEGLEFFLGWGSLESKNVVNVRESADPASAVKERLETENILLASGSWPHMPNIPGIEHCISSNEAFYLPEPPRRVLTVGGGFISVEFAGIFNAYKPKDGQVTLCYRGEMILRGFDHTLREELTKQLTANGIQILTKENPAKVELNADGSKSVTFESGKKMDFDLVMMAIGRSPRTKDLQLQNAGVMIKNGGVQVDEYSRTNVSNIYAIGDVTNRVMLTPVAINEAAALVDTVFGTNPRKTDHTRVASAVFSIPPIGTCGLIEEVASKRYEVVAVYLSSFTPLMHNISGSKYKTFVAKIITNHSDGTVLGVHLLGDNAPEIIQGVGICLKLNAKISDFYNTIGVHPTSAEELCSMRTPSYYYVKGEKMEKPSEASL
Provide the reported pIC50 of each item.
Give bare numbers, as −log10 of the molar value.

The following compounds have reported results that may help.
1. NC(=NCCCNCCCCCCCNCCCN=C(N)NC1CCCCCC1)NC1CCCCCC1 | 4.75
2. N=C(NCCCNCCCCCCCNCCCNC(=N)NC(=N)NCC(c1ccccc1)c1ccccc1)NC(=N)NCC(c1ccccc1)c1ccccc1 | 5.78
3. N=C(NCCCNCCCNCCCNC(=N)NC(=N)NCCC(c1ccccc1)c1ccccc1)NC(=N)NCCC(c1ccccc1)c1ccccc1 | 5.43

Below: the item to evaluate.
Query block: Please look at this compound and report its pIC50: N=C(NCCCNCCCNCCCNC(=N)NCCC(c1ccccc1)c1ccccc1)NCCC(c1ccccc1)c1ccccc1
Result block: 5.29
